The measurements presented in this section are drawn from patent US20250255850A1.

- EXPERIMENT: physchem
- CONDITION_NOTES: organic solvent or mixture

{"COMPOUND_STRING": "O=[N+]([O-])c1cccc2cn[nH]c12", "solubility, mg/mL": 32}
